assay: DRUGMATRIX: Atrial Natriuretic Factor (ANF) radioligand binding (ligand: [125I] ANF (rat)); assay type: cell membranes, Cavia porcellus, Dunkin-Hartley, Adrenal gland, Membrane; conditions: Not Active = under 50% inhibition at 10 µM
*1 amine or outer side, *2 acyl side, *3 side chain or, on linkers, in order; H or OH if unused. Where a SMILES comes first, the peptide text is derived from it. Bridges are numbered along the chain shown (N, C = ends). Roman numbers before positions name the chains, in order. [ ]: non-standard residue; d: D form. Actinocin(1to9) = Cc1c2oc3c(C)ccc(C(=O)[*:2])c3nc-2c(C(=O)[*:1])c(N)c1=O; NMeV = CN[C@H](C(=O)O)C(C)C; Sar = CNCC(=O)O

compound	Ki
CCCOc1ccccc1-c1nc2nn[nH]c2c(=O)[nH]1	Not Active
CC(=O)[C@@]1(O)CC[C@H]2[C@@H]3C[C@H](C)C4=CC(=O)CC[C@]4(C)[C@H]3CC[C@@]21C	Not Active
Cc1c2oc3c(C)ccc(C(=O)N[C@@H]4C(=O)N[C@H](C(C)C)C(=O)N5CCC[C@H]5C(=O)N(C)CC(=O)N(C)[C@@H](C(C)C)C(=O)O[C@@H]4C)c3nc-2c(C(=O)N[C@@H]2C(=O)N[C@H](C(C)C)C(=O)N3CCC[C@H]3C(=O)N(C)CC(=O)N(C)[C@@H](C(C)C)C(=O)O[C@@H]2C)c(N)c1=O [DACTINOMYCIN] (I: T[dV]P[Sar][NMeV] / II: T[dV]P[Sar][NMeV]; ester I:1-I:C, II:1-II:C; linker I:N-II:N via Actinocin(1to9))	Not Active
c1ccc2c(c1)c1cccc3ccc4cccc2c4c31 [BENZO[E]PYRENE]	Not Active
COc1cc2nc(N3CCN(C(=O)C4COc5ccccc5O4)CC3)nc(N)c2cc1OC (stereo unspecified)	Not Active
C[C@]12CC[C@@H]3c4ccc(O)cc4CC[C@H]3[C@@H]1CCC2=O	Not Active
CSc1ccc(/C=C2/C(C)=C(CC(=O)O)c3cc(F)ccc32)cc1 [SULINDAC SULFIDE]	Not Active
O=c1oc2ccccc2c(O)c1Cc1c(O)c2ccccc2oc1=O	Not Active
N[C@@H](Cc1ccc(O)c(O)c1)C(=O)O	Not Active
CC(C)(C)NC(=O)[C@@H]1C[C@@H]2CCCC[C@@H]2CN1C[C@@H](O)[C@H](Cc1ccccc1)NC(=O)[C@H](CC(N)=O)NC(=O)c1ccc2ccccc2n1	Not Active
COc1ccc(C[C@H]2NC[C@H](O)[C@H]2OC(C)=O)cc1	Not Active
C[C@H](CS)C(=O)N1CCC[C@H]1C(=O)O	Not Active
CC[C@]1(O)C[C@H]2CN(CCc3c([nH]c4ccccc34)[C@@](C(=O)OC)(c3cc4c(cc3OC)N(C=O)[C@H]3[C@@](O)(C(=O)OC)[C@H](OC(C)=O)[C@]5(CC)C=CCN6CC[C@]43[C@@H]65)C2)C1	Not Active
NCCCCCC(=O)O	Not Active
CC1CC(OC(=O)C(O)c2ccccc2)CC(C)(C)C1 (stereo unspecified) [CYCLANDELATE]	Not Active
Clc1cccc(Cl)c1NC1=NCCN1	Not Active
CC(C)[C@H]1C(=O)N2CCC[C@H]2[C@]2(O)O[C@](NC(=O)[C@@H]3C=C4c5cccc6[nH]cc(c56)C[C@H]4N(C)C3)(C(C)C)C(=O)N12	Not Active
Cc1ccc(N(CC2=NCCN2)c2cccc(O)c2)cc1	Not Active
Cc1ccc2cc3c(ccc4ccccc43)c3c2c1CC3	Not Active
CC(C)(C)NCC(O)c1cc(Cl)c(N)c(Cl)c1 (stereo unspecified)	Not Active
C=CCC1(C(C)CCC)C(=O)NC(=O)NC1=O (stereo unspecified)	Not Active
NS(=O)(=O)c1cc2c(cc1Cl)NC(C(Cl)Cl)NS2(=O)=O (stereo unspecified) [TRICHLORMETHIAZIDE]	Not Active
CCCN1C[C@H](CSC)C[C@@H]2c3cccc4[nH]cc(c34)C[C@H]21 [PERGOLIDE]	Not Active
CCn1cc(C(=O)O)c(=O)c2cc(F)c(N3CCNCC3)cc21	Not Active
CN(C)CCCN1c2ccccc2Sc2ccccc21	Not Active
CC1=C2C(=CO[C@H](C)[C@H]2C)C(O)=C(C(=O)O)C1=O	Not Active
C[C@H](CCC(=O)O)[C@H]1CC[C@H]2[C@@H]3[C@H](O)C[C@@H]4C[C@H](O)CC[C@]4(C)[C@H]3C[C@H](O)[C@]12C	Not Active
CCC1(c2ccc(N)cc2)CCC(=O)NC1=O (stereo unspecified) [AMINOGLUTETHIMIDE]	Not Active
C[C@](N)(Cc1ccc(O)c(O)c1)C(=O)O	Not Active
N#CC(C#N)=Cc1ccc(O)c(O)c1	Not Active
O=c1ncn2nc(Sc3ccc(F)cc3F)ccc2c1-c1c(Cl)cccc1Cl	Not Active

----------
assay: DRUGMATRIX: Nicotinic Acetylcholine radioligand binding (ligand: [125I] Epibatidine); format: cell membranes, Membrane; settings: imr-32; Not Active = under 50% inhibition at 10 µM
property_measured: Ki

                           substance      result
0                  LEAD (II) ACETATE  Not Active
1               SODIUM NITROPRUSSIDE  Not Active
2  LIPOPOLYSACCHARIDE E. COLI O55:B5  Not Active
3                    CADMIUM ACETATE  Not Active

----------
target: Sodium-dependent dopamine transporter (Homo sapiens, UniProt Q01959); assay: DRUGMATRIX: Dopamine Transporter radioligand binding (ligand: [125I] RTI-55); assay type: cell membranes, CHO-K1, Membrane; details: cho-k1; Not Active = under 50% inhibition at 10 µM
Sequence (Q01959 whole entry): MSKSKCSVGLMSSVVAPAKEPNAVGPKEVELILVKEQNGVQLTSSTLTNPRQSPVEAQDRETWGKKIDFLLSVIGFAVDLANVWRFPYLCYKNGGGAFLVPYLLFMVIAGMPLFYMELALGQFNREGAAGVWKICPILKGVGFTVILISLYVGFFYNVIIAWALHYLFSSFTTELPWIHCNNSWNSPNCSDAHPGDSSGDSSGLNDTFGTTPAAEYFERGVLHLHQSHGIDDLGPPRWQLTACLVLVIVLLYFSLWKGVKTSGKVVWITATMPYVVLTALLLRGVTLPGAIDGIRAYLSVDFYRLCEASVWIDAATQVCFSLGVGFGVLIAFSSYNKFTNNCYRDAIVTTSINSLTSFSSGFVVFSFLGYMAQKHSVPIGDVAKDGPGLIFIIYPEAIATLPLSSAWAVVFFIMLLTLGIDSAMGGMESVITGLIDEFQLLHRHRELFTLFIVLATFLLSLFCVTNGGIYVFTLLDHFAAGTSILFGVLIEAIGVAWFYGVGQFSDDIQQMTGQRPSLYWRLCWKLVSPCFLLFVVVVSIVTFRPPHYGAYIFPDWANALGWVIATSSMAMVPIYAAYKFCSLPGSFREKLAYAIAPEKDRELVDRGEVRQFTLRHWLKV
property_measured: IC50

compound	result
CC(C)C(=O)Nc1ccc([N+](=O)[O-])c(C(F)(F)F)c1 [FLUTAMIDE]	Not Active
CC[C@@H](CO)NC(=O)[C@@H]1C=C2c3cccc4[nH]cc(c34)C[C@H]2N(C)C1 [METHYLERGONOVINE]	Not Active
CC(=O)O[C@@]12CO[C@@H]1C[C@H](O)[C@@]1(C)C(=O)[C@H](O)C3=C(C)[C@@H](OC(=O)[C@H](O)[C@@H](NC(=O)OC(C)(C)C)c4ccccc4)C[C@@](O)([C@@H](OC(=O)c4ccccc4)[C@H]21)C3(C)C.O.O.O [DOCETAXEL]	Not Active

----------
Target: 5-hydroxytryptamine receptor 2C (Homo sapiens, UniProt P28335)
Sequence (P28335 whole entry): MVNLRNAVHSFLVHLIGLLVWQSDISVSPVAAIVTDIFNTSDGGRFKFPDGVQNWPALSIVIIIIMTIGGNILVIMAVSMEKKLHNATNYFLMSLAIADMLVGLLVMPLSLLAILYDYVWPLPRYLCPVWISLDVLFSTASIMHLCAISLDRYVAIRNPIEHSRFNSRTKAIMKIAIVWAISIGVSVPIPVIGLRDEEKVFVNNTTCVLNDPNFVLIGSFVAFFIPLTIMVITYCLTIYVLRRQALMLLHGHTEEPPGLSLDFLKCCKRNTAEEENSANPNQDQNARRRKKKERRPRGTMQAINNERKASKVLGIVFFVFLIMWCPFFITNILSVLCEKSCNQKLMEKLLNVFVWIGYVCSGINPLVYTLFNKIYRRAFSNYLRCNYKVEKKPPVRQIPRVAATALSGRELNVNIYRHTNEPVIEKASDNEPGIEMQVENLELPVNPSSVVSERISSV
Assay: DRUGMATRIX: Serotonin (5-Hydroxytryptamine) 5-HT2C radioligand binding (ligand: [3H] Mesulergine)
Assay type: cell membranes, CHO-K1, Membrane
Conditions: Not Active = under 50% inhibition at 10 µM; read-out: Ki
pKi: −log10 of the molar value.

molecule	pKi
CC[C@@H](CO)NC(=O)[C@@H]1C=C2c3cccc4[nH]cc(c34)C[C@H]2N(C)C1	8.18
CC(C)[C@H]1C(=O)N2CCC[C@H]2[C@]2(O)O[C@](NC(=O)[C@@H]3C=C4c5cccc6[nH]cc(c56)C[C@H]4N(C)C3)(C(C)C)C(=O)N12	7.26
O=C(CCCN1CC=C(n2c(=O)[nH]c3ccccc32)CC1)c1ccc(F)cc1	6.62
CC/C(=C(\c1ccccc1)c1ccc(OCCN(C)C)cc1)c1ccccc1	6.62
CN(C)CCCN1c2ccccc2Sc2ccccc21	7.28
CC(C)N1CCN(c2ccc(OCC3COC(Cn4cncn4)(c4ccc(Cl)cc4Cl)O3)cc2)CC1 (configuration not stated)	5.44
CC(C)[C@@]1(NC(=O)[C@@H]2C[C@@H]3c4cccc5[nH]cc(c45)C[C@H]3N(C)C2)O[C@@]2(O)[C@@H]3CCCN3C(=O)[C@H](Cc3ccccc3)N2C1=O.CS(=O)(=O)O [DIHYDROERGOCRISTINE MESYLATE]	6.90

Origin of values: ChEMBL document CHEMBL1909046
